The values you see were collected from ChEMBL document CHEMBL2417482.

- Assay overview: Cytotoxicity against human QSG7701 cells assessed as growth inhibition at 100 uM after 48 hrs by MTT assay relative to control
- Assay type: cell-based
- Reported conditions: read-out: GI
Observable: inhibition at 48 h, 100 µM (%)
Express it in %; write the number only.

Query block: Looking for the measured inhibition at 48 h, 100 µM of "O=C(Cc1ccc(F)cc1)NCCNC(=O)C1(NC(=O)c2ccc(C(F)(F)F)nc2)CCN(Cc2ccccc2)CC1" , can you help?
Result block: 38.2

Query block: Looking for the measured inhibition at 48 h, 100 µM of "O=C(Cc1cccc(F)c1)NCCNC(=O)C1(NC(=O)c2ccc(C(F)(F)F)nc2)CCN(Cc2ccccc2)CC1" , can you help?
Result block: 35.2

Query block: Looking for the measured inhibition at 48 h, 100 µM of "O=C(Cc1cccc2ccccc12)NCCNC(=O)C1(NC(=O)c2ccc(C(F)(F)F)nc2)CCCCC1" , can you help?
Result block: 31.7

Query block: Looking for the measured inhibition at 48 h, 100 µM of "O=C(NCCNS(=O)(=O)c1cccc2cnccc12)C1CCCCC1" , can you help?
Result block: 26.2

Query block: Looking for the measured inhibition at 48 h, 100 µM of Cc1ccc(NC(=O)c2ccc(CN3CCN(C)CC3)cc2)cc1Nc1nccc(-c2cccnc2)n1 [IMATINIB] , can you help?
Result block: 84.2

Query block: Looking for the measured inhibition at 48 h, 100 µM of "O=C(Cc1cccc2ccccc12)NCCNC(=O)C1(NC(=O)c2cc(C(F)(F)F)cc(C(F)(F)F)c2)CCN(Cc2ccccc2)CC1" , can you help?
Result block: 89.3

Query block: Looking for the measured inhibition at 48 h, 100 µM of "O=C(Cc1cccc2ccccc12)NCCNC(=O)C1(NC(=O)c2cc(C(F)(F)F)cc(C(F)(F)F)c2)CCCC1" , can you help?
Result block: 2.9

Query block: Looking for the measured inhibition at 48 h, 100 µM of "COc1cc(OC)cc(C(=O)NC2(C(=O)NCCNC(=O)Cc3cccc4ccccc34)CCN(Cc3ccccc3)CC2)c1" , can you help?
Result block: 92.6

---

- Assay overview: Cytotoxicity against human QSG7701 cells assessed as growth inhibition at 10 uM after 48 hrs by MTT assay relative to control
- Assay type: cell-based
Observable: inhibition at 48 h, 10 µM (%)
Express it in %; write the number only.

Query block: Looking for the measured inhibition at 48 h, 10 µM of "O=C(Cc1cccc2ccccc12)NCCNC(=O)C1(NC(=O)c2ccc(C(F)(F)F)nc2)CCN(Cc2ccccc2)CC1" , can you help?
Result block: 28.7

---

- Assay overview: Cytotoxicity against human HL7702 cells assessed as growth inhibition at 50 uM after 48 hrs by MTT assay relative to control
- Assay type: cell-based, L02
- Reported conditions: read-out: GI
Observable: inhibition at 48 h, 50 µM (%)
Express it in %; write the number only.

Query block: Looking for the measured inhibition at 48 h, 50 µM of "CCc1ccc(C(=O)NC2(C(=O)NCCNC(=O)Cc3cccc4ccccc34)CCN(Cc3ccccc3)CC2)cc1" , can you help?
Result block: 82

Query block: Looking for the measured inhibition at 48 h, 50 µM of "O=C(NCCNS(=O)(=O)c1cccc2cnccc12)C1CCCC1" , can you help?
Result block: 11.3

Query block: Looking for the measured inhibition at 48 h, 50 µM of "O=C(Cc1cccc2ccccc12)NCCNC(=O)C1(NC(=O)c2ccc(C(F)(F)F)nc2)CCN(Cc2ccccc2)CC1" , can you help?
Result block: 85.1

Query block: Looking for the measured inhibition at 48 h, 50 µM of "O=C(Cc1cccc2ccccc12)NCCNC(=O)C1(NC(=O)c2ccc(C(F)(F)F)nc2)CCCC1" , can you help?
Result block: 4.2

Query block: Looking for the measured inhibition at 48 h, 50 µM of "O=C(NCCNS(=O)(=O)c1cccc2cnccc12)C1CCCCC1" , can you help?
Result block: 9.4

---

Assign inhibition at 48 h, 100 µM to each entry below.
- Assay overview: Cytotoxicity against human HL7702 cells assessed as growth inhibition at 100 uM after 48 hrs by MTT assay relative to control
- Format: cell-based, L02
- Reported conditions: read-out: GI
Express it in %; write the number only.

Query block: Looking for the measured inhibition at 48 h, 100 µM of "O=C(Cc1cccc(F)c1)NCCNC(=O)C1(NC(=O)c2ccc(C(F)(F)F)nc2)CCN(Cc2ccccc2)CC1" , can you help?
Result block: 14.9

Query block: Looking for the measured inhibition at 48 h, 100 µM of "O=C(Cc1cccc2ccccc12)NCCNC(=O)C1(NC(=O)c2ccc(C(F)(F)F)nc2)CCNCC1" , can you help?
Result block: 10.9

Query block: Looking for the measured inhibition at 48 h, 100 µM of "Cc1ccc(NC(=O)c2ccc(CN3CCN(C)CC3)cc2)cc1Nc1nccc(-c2cccnc2)n1" , can you help?
Result block: 84.6

Query block: Looking for the measured inhibition at 48 h, 100 µM of "O=C(Cc1cccc2ccccc12)NCCNC(=O)C1(NC(=O)c2ccc(C(F)(F)F)nc2)CCCCC1" , can you help?
Result block: 20.2

Query block: Looking for the measured inhibition at 48 h, 100 µM of "O=C(Cc1cccc2ccccc12)NCCNC(=O)C1(NC(=O)c2ccc(C(F)(F)F)nc2)CCCC1" , can you help?
Result block: 9.9

Query block: Looking for the measured inhibition at 48 h, 100 µM of "O=C(Cc1cccc2ccccc12)NCCNC(=O)C1(NC(=O)c2cc(C(F)(F)F)cc(C(F)(F)F)c2)CCN(Cc2ccccc2)CC1" , can you help?
Result block: 87

Query block: Looking for the measured inhibition at 48 h, 100 µM of "O=C(Cc1cccc2ccccc12)NCCNC(=O)C1(NC(=O)c2cccs2)CCN(Cc2ccccc2)CC1" , can you help?
Result block: 85.2

Query block: Looking for the measured inhibition at 48 h, 100 µM of "O=C(Cc1ccc(F)cc1)NCCNC(=O)C1(NC(=O)c2cccs2)CCN(Cc2ccccc2)CC1" , can you help?
Result block: 23.5

---

- Assay overview: Cytotoxicity against human HL7702 cells assessed as growth inhibition at 100 uM after 48 hrs by MTT assay relative to control
- Format: cell-based, L02
- Reported conditions: read-out: GI
Assign inhibition at 48 h, 100 µM to each entry below.
Express it in %; write the number only.

Query block: Looking for the measured inhibition at 48 h, 100 µM of "O=C(NCCNS(=O)(=O)c1cccc2cnccc12)C1CCCCC1" , can you help?
Result block: 15.5

Query block: Looking for the measured inhibition at 48 h, 100 µM of "COc1cc(OC)cc(C(=O)NC2(C(=O)NCCNC(=O)Cc3cccc4ccccc34)CCN(Cc3ccccc3)CC2)c1" , can you help?
Result block: 87

Query block: Looking for the measured inhibition at 48 h, 100 µM of "O=C(Cc1cccc2ccccc12)NCCNC(=O)C1(NC(=O)CCc2cccc(O)c2)CCN(Cc2ccccc2)CC1" , can you help?
Result block: 72.2

Query block: Looking for the measured inhibition at 48 h, 100 µM of "O=C(NCCNS(=O)(=O)c1cccc2cnccc12)C1CCCC1" , can you help?
Result block: 18.4

Query block: Looking for the measured inhibition at 48 h, 100 µM of "O=C(Cc1ccc(F)cc1)NCCNC(=O)C1(NC(=O)c2ccc(C(F)(F)F)nc2)CCN(Cc2ccccc2)CC1" , can you help?
Result block: 37.2

Query block: Looking for the measured inhibition at 48 h, 100 µM of "CCc1ccc(C(=O)NC2(C(=O)NCCNC(=O)Cc3cccc4ccccc34)CCN(Cc3ccccc3)CC2)cc1" , can you help?
Result block: 86.9

---

Assign inhibition at 48 h, 50 µM to each entry below.
- Assay overview: Cytotoxicity against human HL7702 cells assessed as growth inhibition at 50 uM after 48 hrs by MTT assay relative to control
- Format: cell-based, L02
- Reported conditions: read-out: GI
Include the unit right after the number.

Query block: Looking for the measured inhibition at 48 h, 50 µM of "O=C(Cc1cccc(F)c1)NCCNC(=O)C1(NC(=O)c2ccc(C(F)(F)F)nc2)CCN(Cc2ccccc2)CC1" , can you help?
Result block: 5.7%

Query block: Looking for the measured inhibition at 48 h, 50 µM of "O=C(Cc1cccc2ccccc12)NCCNC(=O)C1(NC(=O)c2ccc(C(F)(F)F)nc2)CCNCC1" , can you help?
Result block: 9.8%

Query block: Looking for the measured inhibition at 48 h, 50 µM of "Cc1ccc(NC(=O)c2ccc(CN3CCN(C)CC3)cc2)cc1Nc1nccc(-c2cccnc2)n1" , can you help?
Result block: 68.2%

Query block: Looking for the measured inhibition at 48 h, 50 µM of "O=C(Cc1cccc2ccccc12)NCCNC(=O)C1(NC(=O)c2cccs2)CCN(Cc2ccccc2)CC1" , can you help?
Result block: 50%

Query block: Looking for the measured inhibition at 48 h, 50 µM of "O=C(Cc1ccc(F)cc1)NCCNC(=O)C1(NC(=O)c2cccs2)CCN(Cc2ccccc2)CC1" , can you help?
Result block: 5%

Query block: Looking for the measured inhibition at 48 h, 50 µM of "O=C(Cc1cccc2ccccc12)NCCNC(=O)C1(NC(=O)c2cc(C(F)(F)F)cc(C(F)(F)F)c2)CCCC1" , can you help?
Result block: 44%

Query block: Looking for the measured inhibition at 48 h, 50 µM of "O=C(NCCNS(=O)(=O)c1cccc2cnccc12)c1cccc(O)c1" , can you help?
Result block: 0.9%
